# targetSystem: T1, human IL-1β (human, UniProt P01584 117-269)
# T1 construct: antigen of the ABT2 dAbs; also called hIL-1β; IL-1 beta
# experimentalProtocol: IC50 column of Table 63; receptor binding assay presumed
Some binders, each annotated with its measured log10(IC50).
property: log10(IC50) (log10 of the value in nM)

ABT2-65-81 (other, VH dAb) VH: EVQLLESGGGLVQPGGSLRLSCVASGFTFEEYQMGWVRQAPGKGLEWVSSISAMGNRTYYADSVKGRFTISRDDSKNTLYLQMNSLRAEDTAVYYCAQNLVRLGRSRWMFDYWGQGTLVTVSS	1.00
ABT2-65-121 (other, VH dAb) VH: EVQLLESGGGLVQPGGSLRLSCVASGFTFEDYQMGWVRQAPGKGLEWVSSIAAHGNRTYYADSVKGRFTISRDDSKNTLYLQMNSLRAEDTAVYYCAQNLVRLGRSRWMFDYWGQGTLVTVSS	0.59
ABT2-65-177 (other, VH dAb) VH: EVQLLESGGGLVQPGGSLRLSCAASGFTFEDYQMGWVRQAPGKGLEWVSSISAMGNRTYYADSVKGRFTISRDDSKNTLYLQMNSLRAEDTAVYYCAQNLVRFKVLQWMFDYWGQGTLVTVSS	1.30
ABT2-65-28 (other, VH dAb) VH: EVQLLESGGGLVQPGGSLRLSCAASGFTFEDYQMGWVRQAPGKGLEWVSSISAMGNRTYYADSVKGRFTISRDDSKNTLYLQMNSLRAEDTAVYYCAQNLVQFRRSQWMFDYWGQGTLVTVSS	0.70
ABT2-65-126 (other, VH dAb) VH: EVQLLESGGGLVQPGGSLRISCVTSGFTFEDYQMGWVRQAPGKGLEWVSSISAMGNRTYYADSVKGRFTISRDDSKNTLNLQMNSLRAEDTAVYYCAQNLVRLGRSRWVFDYWGQGTLVTVSS	0.63
ABT2-62 (other, VK dAb) VL: DIQMTQSPSSLSASVGDRVTITCRASQSIQTYLSWYQQKPGKAPKLLIYNASNLQSGVPSRFSGSGSGTDFTLTISSLQPEDFATYYCQQRALYPTTFGQGTKVEIKR	3.00
ABT2-46 (other) VL: DIQMTQSPSSLSASVGDRVTITCRASQSIIEWLSWYQQKPGKAPKLLIYRTSVLQSGVPSRFSGSGSGTDFTLTISSLQPEDFATYYCQQNEFWPFTFGQGTKVEIKR	2.59
ABT2-65-151 (other, VH dAb) VH: EVQLLESGGGLVQPGGSLRLSCAASGFTFEDYQMGWVRQAPGKGLEWVSSISAMGNRTYYADSVKGRFTISRDDSKNTLYLQMNSLRAEDTAVYYCAENLVRWRKHAWMFDYWGQGTLVTVSS	0.78
ABT2-65-37 (other, VH dAb) VH: EVQLLESGGGLVQPGGSLRLSCAASGFTFADYQMGWVRQAPGKGLEWVSSISAMGNRTYYADSVKGRFTISRDDSKNTLYLQMNSLRAEDTAVYYCAQNLVRTQSKMWMFDYWGQGTLVTVSS	2.00
ABT2-65-125 (other, VH dAb) VH: EVQLLESGGGLVQPGGSLRLSCVASGFTFEDYQMGWVRQAPGKGLEWISSISAMGNRTYYADSVKGRFTISRDDSKNTLYLQMNSLRAEDTAVYYCAQNLVRLGRSRWMFDYWGQGTLVTVSS	0.60
